- Tested on: rat primary hepatocytes
- test-summary: MMP assay in rat primary hepatocytes
- cond: read-out: MMP assays IC50 (µM) Rat Hepatocytes
readout-name: IC50 (µM)
Write down the numeric answer in µM and omit the unit.

Worked examples, 3 molecules total:
O=C1NC(=O)c2cccc3cccc1c23 [1H-Benzo[de]isoquinoline-1,3(2H)-dione]
5.56
CS(=O)(=O)O.CS(=O)(=O)O.N=C(N)c1ccc(/C=C/c2ccc(C(=N)N)cc2O)cc1
13.6
COc1ccc(N)cc1N.O=S(=O)(O)O [2,4-Diaminoanisole sulfate]
19.6

Request the reported IC50 associated with CNC(=O)c1cc(Oc2ccc(NC(=O)Nc3ccc(Cl)c(C(F)(F)F)c3)cc2)ccn1 2.25

Also O=C1NCN(c2ccccc2)C12CCN(CCCOc1ccc(F)cc1)CC2 ? 26

For O=C(NCc1cccnc1)Nc1ccc([N+](=O)[O-])cc1 then? 25.8

* * *

Measured LUM: mean difference in luminescence (ATP content) relative to plate controls values are reported for all entries that follow.
- Tested on: Caenorhabditis elegans strain PE255
- test-summary: In vivo C. elegans ATP status assay
- cond: 100 µM
Give the figure by itself; no unit, no explanation.

CCC(C)c1cc([N+](=O)[O-])cc([N+](=O)[O-])c1O (stereo not drawn)
1.3353
Nc1ccc(N)c2c1C(=O)c1ccccc1C2=O
2.457

Any idea what LUM: mean difference in luminescence (ATP content) relative to plate controls was measured for Nc1ccc2c(c1)C(=O)c1ccccc1C2=O ? 1.98

* * *

- Tested on: HepG2 cells
- test-summary: ROS-Glo hydrogen peroxide (ROS) assay
- Type: cell-based, human
- cond: Homo sapiens, HepG2; 2 h treatment; mean±SD of three experiments; read-out: ROS (HepG2) EC50
Reported EC50 values for the following compounds.
Numeric only. Scale: µM

O=C(O)c1cccnc1Nc1cccc(C(F)(F)F)c1 [Niflumic acid, reference compound]
6.35

Here is another compound to look at.
Look at this compound and give its reported EC50. Cc1cc(Cc2cc(C)cc(C(C)(C)C)c2O)c(O)c(C(C)(C)C)c1 31.4

* * *

Each entry below lists one item and its recorded I-ADP, % of control (O2 consumption rate) value.
- Test system: isolated rat liver mitochondria
- test-summary: Oxygen consumption, Clark-type oxygen electrode
- Type: biochemical
- cond: 100 µM; glutamate/malate driven state 3 respiration; isolated rat liver mitochondria

Take a look at these entries with their results.
Cc1cc(O)c2c(c1)C(=O)c1cc(O)cc(O)c1C2=O
59 (30.1) % of control
O=C(O)c1cccnc1Nc1cccc(C(F)(F)F)c1 [Niflumic acid, reference compound]
70 (32.1) % of control
Nc1ccc2c(c1)C(=O)c1ccccc1C2=O
101 (53.8) % of control

Let's switch to this compound now.
Quick one: I-ADP, % of control (O2 consumption rate) of COc1cc2c(cc1OC)-c1cc3ccc(OC)c(OC)c3c[n+]1CC2 [Palmatine chloride hydrate] ? 77 (35.3) % of control

* * *

- Test system: HepG2 cells
- test-summary: cells
- cond: Homo sapiens, HepG2, read-out: MMP assays efficacy (%) HepG2
Measured Emax of individual entries
Give your result in % as a bare value.

Oc1cc(O)c(Cl)cc1Cl [4,6-Dichloro-1,3-benzenediol]
108
C#C[C@]1(O)CC[C@H]2[C@@H]3CCc4cc(O)ccc4[C@H]3CC[C@@]21C [Compound 17alpha-Ethinylestradiol]
107
O=c1c(-c2ccc(O)cc2)coc2cc(O)cc(O)c12 [Genistein]
96
IC(I)=C(I)I [Tetraiodoethene]
103

Recorded Emax for COP(=S)(OC)Oc1cc(Cl)c(Br)cc1Cl [Bromofos] , please? 95

Lookup Oc1c(Cl)cc(Cl)c2cccnc12 [CHLOROXINE] 99

Moving on to COC(=O)Nc1nc2ccc(C(=O)c3cccs3)cc2[nH]1 [Nocodazole] 87

Now consider CC(C)(C)C1=CC(=O)C=C(C(C)(C)C)C1=O . 80

Try CCc1c(C(=O)NN2CCCCC2)nn(-c2ccc(Cl)cc2Cl)c1-c1ccc(Br)cc1 [Surinabant] next. 94
